Data provenance is patent US20160041182A1.

Record form. Attribute: kon. Fill in for each entry.
ASSAY SYSTEM: T1, mouse IL-17A (mouse, UniProt Q62386 26-158, limits assumed)
T1 construct: In SPR it was injected in solution, and no biotinylation is mentioned there; also called mIL-17A; mIL17A
T1 sequence (looked up): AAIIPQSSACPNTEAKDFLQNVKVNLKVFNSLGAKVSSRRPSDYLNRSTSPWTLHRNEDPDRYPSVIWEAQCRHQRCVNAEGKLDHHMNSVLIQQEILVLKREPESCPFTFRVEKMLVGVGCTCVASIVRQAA
ASSAY NOTES: SPR (ProteOn XPR-36), clone amine-coupled on chip, mIL-17A in solution, 1:1 Langmuir fit
# number only, unit M⁻¹ s⁻¹ dropped from output

Input: Given the entry TP1KR9P62-A2 (designed binder, also called TCL14-His fusion protein) MLPALKNLVVSRVTEDSAHLSWTAPDAAFDSFAIEYSEDYWLGEAIVLTVPGSERSYDLTGLKPGTEYGVSIRGVKGGYPSPPLSAIFTT , report its measured kon.
Output: 408000

Input: If you can, please state the reported kon value of TP1KR9P61-E2 (designed binder, also called TCL14-His fusion protein) MLPAPKNLVVSRVTEDSARLSWTAPDAAFDSFAIEYFEDWWSGEAIVLTVPGSERSYDLTGLKPGTEYAVSIRGVKGGMPSPPLSAIFTT .
Output: 147000

Input: Fill in: kon of TP1KR9P62-D4 (designed binder, also called TCL14-His fusion protein) MLPAPKNLVVSRVTEDSARLSWTAPDAAFDSFGIIYFEDWWAGEAIVLTVPGSERSYDLTGLKPGTEYGVSIRGVKGGPPSRPLSAIFTT is ___
Output: 105000

Input: I am curious: what kon value has been reported for TP1KR9P61-A2 (designed binder, also called TCL14-His fusion protein) MLPAPKNLVVSRVTEDSARLSWTAPDAAFDSFAIEYFEDWWSGEAIVLTVPGSERSYDLTGLKPGTEYAVSIRGVKGGMPSAPLSAIFTT ?
Output: 137000
